# measured_on: P2X purinoceptor 7 (Homo sapiens)
# Sequence (Q99572 whole entry): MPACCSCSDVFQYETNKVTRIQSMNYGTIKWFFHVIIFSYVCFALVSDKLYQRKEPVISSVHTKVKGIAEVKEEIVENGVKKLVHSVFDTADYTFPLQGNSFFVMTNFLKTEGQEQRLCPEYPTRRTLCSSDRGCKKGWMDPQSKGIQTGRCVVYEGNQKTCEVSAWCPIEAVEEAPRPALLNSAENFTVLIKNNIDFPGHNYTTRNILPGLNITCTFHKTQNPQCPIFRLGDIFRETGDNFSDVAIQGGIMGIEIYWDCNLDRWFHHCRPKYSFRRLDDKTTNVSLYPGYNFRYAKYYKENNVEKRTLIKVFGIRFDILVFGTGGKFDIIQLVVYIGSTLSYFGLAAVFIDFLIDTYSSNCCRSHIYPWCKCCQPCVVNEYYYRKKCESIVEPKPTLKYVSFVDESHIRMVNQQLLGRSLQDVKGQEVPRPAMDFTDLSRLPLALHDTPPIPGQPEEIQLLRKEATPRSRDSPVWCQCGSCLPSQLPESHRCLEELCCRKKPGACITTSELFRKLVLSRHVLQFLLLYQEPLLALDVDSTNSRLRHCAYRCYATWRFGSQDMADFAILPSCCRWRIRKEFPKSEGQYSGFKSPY
# assay_summary: Antagonist activity at human P2X7 receptor
Consider the following molecules and their measured IC50 readings.

Before answering, review these 5 worked examples.
{"molecule": "Cc1nc2cc(C)c(Nc3nc(=O)cc4n3C(c3ccc(F)cc3)CC4)cc2s1 (stereo unspecified)", "IC50": "< 10 nM"}
{"molecule": "Cc1c(Cl)cccc1Nc1nc(=O)cc2n1C(c1ccccc1)CC2 (stereo unspecified)", "IC50": "< 10 nM"}
{"molecule": "Cc1ccc(Cn2c(Nc3cc4sc(C)nc4cc3C)nc(=O)c3[nH]cnc32)cc1", "IC50": "500 nM"}
{"molecule": "Cc1c(Cl)cccc1Nc1nc(=O)cc2n1C(c1ccccc1)CO2 (stereo unspecified)", "IC50": "< 10 nM"}
{"molecule": "COc1cnc(C)c(Nc2nc(=O)c3c(n2Cc2cc(F)c(F)c(F)c2)CCC3)c1", "IC50": "100 nM"}

Consider the record given below.
Please give measured IC50 of the following entry: "Cc1cc(Nc2nc(=O)c3[nH]cnc3n2Cc2ccccc2)c(C)cc1Cl"
< 10 nM
